# MEASURED_TARGET: Receptor-type tyrosine-protein phosphatase F (Homo sapiens) (UniProt P10586)
# Sequence (P10586 whole entry): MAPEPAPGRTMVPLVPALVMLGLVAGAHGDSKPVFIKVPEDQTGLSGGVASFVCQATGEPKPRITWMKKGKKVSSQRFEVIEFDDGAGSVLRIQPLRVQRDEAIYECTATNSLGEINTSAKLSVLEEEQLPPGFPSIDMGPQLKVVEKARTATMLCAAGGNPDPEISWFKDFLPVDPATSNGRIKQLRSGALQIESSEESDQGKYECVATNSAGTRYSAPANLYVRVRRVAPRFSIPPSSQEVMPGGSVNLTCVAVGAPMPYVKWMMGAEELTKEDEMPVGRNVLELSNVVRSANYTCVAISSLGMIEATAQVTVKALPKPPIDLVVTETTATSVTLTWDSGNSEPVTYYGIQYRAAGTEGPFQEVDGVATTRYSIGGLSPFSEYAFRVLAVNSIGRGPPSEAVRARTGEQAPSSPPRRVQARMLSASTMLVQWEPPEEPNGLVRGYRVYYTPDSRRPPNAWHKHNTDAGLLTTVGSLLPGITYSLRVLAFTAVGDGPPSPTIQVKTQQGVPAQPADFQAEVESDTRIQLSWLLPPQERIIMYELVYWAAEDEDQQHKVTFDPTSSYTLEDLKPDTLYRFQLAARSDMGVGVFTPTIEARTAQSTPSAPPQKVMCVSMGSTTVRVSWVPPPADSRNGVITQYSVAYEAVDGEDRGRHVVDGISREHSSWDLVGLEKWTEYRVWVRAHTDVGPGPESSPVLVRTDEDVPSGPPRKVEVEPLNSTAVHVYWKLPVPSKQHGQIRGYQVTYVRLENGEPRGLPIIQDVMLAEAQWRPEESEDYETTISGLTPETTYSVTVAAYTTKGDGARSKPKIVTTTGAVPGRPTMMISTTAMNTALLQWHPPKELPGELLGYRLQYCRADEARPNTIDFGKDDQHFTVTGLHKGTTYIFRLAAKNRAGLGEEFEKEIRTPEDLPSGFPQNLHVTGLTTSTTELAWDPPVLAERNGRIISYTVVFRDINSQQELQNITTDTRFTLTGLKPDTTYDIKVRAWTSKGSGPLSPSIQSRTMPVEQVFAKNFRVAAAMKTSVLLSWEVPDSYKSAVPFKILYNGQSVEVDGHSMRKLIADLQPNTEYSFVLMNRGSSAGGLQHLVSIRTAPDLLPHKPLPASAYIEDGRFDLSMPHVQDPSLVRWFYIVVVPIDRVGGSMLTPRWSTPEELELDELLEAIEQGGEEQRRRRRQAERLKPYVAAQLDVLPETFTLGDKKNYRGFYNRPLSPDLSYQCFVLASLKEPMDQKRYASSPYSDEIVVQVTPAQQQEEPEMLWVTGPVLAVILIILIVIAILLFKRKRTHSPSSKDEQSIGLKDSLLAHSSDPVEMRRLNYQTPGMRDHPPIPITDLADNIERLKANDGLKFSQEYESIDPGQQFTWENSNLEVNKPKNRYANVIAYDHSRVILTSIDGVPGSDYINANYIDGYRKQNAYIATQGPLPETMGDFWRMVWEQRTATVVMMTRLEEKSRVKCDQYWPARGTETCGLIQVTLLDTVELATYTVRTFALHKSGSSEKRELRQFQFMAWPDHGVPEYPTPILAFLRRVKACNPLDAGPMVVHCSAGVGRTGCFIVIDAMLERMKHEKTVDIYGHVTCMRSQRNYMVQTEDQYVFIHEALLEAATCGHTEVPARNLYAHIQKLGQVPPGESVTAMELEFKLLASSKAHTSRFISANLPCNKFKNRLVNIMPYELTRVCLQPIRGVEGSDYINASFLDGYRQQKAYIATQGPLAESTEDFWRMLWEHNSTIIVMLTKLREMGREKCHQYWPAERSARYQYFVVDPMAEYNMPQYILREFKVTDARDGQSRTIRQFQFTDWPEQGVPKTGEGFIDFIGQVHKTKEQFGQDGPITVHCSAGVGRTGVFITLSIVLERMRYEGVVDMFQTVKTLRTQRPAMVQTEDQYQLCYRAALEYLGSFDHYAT
# EXPERIMENT_SUMMARY: Percent inhibition against Protein-tyrosine phosphatase Lar at 100 uM
EXPERIMENTAL_READOUT: inhibition (%)
The reply should be a number in %, with the unit left off.

What does the record list as inhibition for "CCCCCNC(=O)[C@H](Cc1ccc(OCC(N)=O)c(C(=O)O)c1)NC(=O)[C@H](Cc1ccccc1)NC(=O)OC(C)(C)C" ?
0

What does the record list as inhibition for "CCCCCNC(=O)[C@H](Cc1ccc(OCC(=O)NO)c(C(=O)O)c1)NC(=O)[C@H](Cc1ccccc1)NC(=O)OC(C)(C)C" ?
1

What does the record list as inhibition for CCCCCNC(=O)C(Cc1ccc(OCC(=O)O)c(C#N)c1)NC(=O)CCC(=O)O (stereo not drawn) ?
0

What does the record list as inhibition for "CCCCCNC(=O)[C@H](Cc1ccc(OCC(=O)OC)c(C(=O)O)c1)NC(=O)[C@H](Cc1ccccc1)NC(=O)OC(C)(C)C" ?
0

What does the record list as inhibition for "CCCCCNC(=O)[C@H](Cc1ccc(OCC(=O)O)c(C#CC(=O)O)c1)NC(=O)[C@H](Cc1ccccc1)NC(=O)OC(C)(C)C" ?
1

What does the record list as inhibition for "CCCCCNC(=O)[C@H](Cc1ccc(OCC(=O)O)c(CCC(=O)O)c1)NC(=O)[C@H](Cc1ccccc1)NC(=O)OC(C)(C)C" ?
13

What does the record list as inhibition for CCCCCNC(=O)C(Cc1ccc(OCC(=O)O)c(C(=O)O)c1)NC(=O)CCC(=O)O (stereo not drawn) ?
0

Note: attention shifts to another entry.
What does the record list as inhibition for CCCCCNC(=O)C(Cc1ccc(OCCO)c(C(=O)O)c1)NC(=O)CCC(=O)O (stereo not drawn) ?
0
